- MEASURED ON: CDK1/cyclin E (Homo sapiens)
- Construct: purified CDK/cyclin complex; with G1/S-specific cyclin-E1
- Sequence (P06493 whole entry): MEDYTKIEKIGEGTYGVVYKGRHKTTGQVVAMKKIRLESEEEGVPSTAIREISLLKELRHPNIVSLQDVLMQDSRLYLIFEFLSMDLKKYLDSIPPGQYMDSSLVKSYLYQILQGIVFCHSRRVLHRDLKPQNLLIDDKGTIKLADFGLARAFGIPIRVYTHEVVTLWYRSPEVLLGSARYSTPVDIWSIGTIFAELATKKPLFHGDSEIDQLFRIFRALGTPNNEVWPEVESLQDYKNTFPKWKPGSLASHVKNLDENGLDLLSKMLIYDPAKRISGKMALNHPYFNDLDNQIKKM
- Sequence (P24864 whole entry partner): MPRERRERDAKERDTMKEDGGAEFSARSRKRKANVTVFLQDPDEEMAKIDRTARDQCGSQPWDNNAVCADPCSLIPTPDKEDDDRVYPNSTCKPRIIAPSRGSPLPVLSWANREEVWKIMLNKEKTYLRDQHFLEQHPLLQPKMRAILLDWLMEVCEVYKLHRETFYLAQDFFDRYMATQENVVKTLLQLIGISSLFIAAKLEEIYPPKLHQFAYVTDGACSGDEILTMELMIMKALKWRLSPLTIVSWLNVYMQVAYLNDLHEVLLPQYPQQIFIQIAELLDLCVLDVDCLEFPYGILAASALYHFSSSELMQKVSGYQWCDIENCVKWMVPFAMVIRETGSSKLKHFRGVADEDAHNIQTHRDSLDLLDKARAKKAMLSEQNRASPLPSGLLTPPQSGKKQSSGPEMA
- ASSAY PROTOCOL: […]-ATP radiometric filter-binding kinase assay
- Assay type: biochemical
- RUN CONDITIONS: read-out: Compound 2
METRIC: pIC50
Numbers only, as −log10 of the molar value.

**Query** Please report the recorded pIC50 for CC(C)n1cnc(NC(=O)Cc2ccccc2O)c1 .
**Result** 6.14

====

- MEASURED ON: CDK2/cyclin E (Homo sapiens, UniProt P24941)
- Construct: purified CDK/cyclin complex; with G1/S-specific cyclin-E1
- ASSAY PROTOCOL: […]-ATP radiometric filter-binding kinase assay
- Type: biochemical
- RUN CONDITIONS: read-out: Compound 2
METRIC: IC50 (nM)
Numbers only, in nM.

**Query** Please report the recorded IC50 for CC(C)n1cnc(NC(=O)Cc2ccccc2O)c1 .
**Result** 160
